// provenance: the supplement of paper PMC12855868

B1: library; numbered along this chain (parent)
chain: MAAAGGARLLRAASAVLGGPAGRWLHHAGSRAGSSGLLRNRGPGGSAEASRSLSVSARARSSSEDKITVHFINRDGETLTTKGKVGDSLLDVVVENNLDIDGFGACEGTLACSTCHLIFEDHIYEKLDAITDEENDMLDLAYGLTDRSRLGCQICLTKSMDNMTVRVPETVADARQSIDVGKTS

Variants of: B1
Experiment: scaled log2 fold change in cell abundance, elesclomol vs control (0 = silent mean, 1 = nonsense mean) (scaled log2 ratio); higher = higher viability under elesclomol (loss of FDX1 cuproptosis function);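 further: variant abundance is its share of total variant reads in each endpoint sample, from next-generation sequencing of the integrated ORF PCR-amplified out of genomic DNA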
Condition: with ABC1 FDX1 KO; elesclomol 5 nM; glucose 10 mM; 14 days
As shown below, each of these variants has a reported scaled log2 fold change value.
Write the value as a bare number.

F119E
1.04

Q: Form field: reported scaled log2 fold change of L17S
Result: 0.386

Q: Try this variant next: L37K
Result: 0.0656
